Molecular target: FGF-2 (UniProt P09038 135-288, limits assumed)
Sequence (P09038 135-288 limits assumed): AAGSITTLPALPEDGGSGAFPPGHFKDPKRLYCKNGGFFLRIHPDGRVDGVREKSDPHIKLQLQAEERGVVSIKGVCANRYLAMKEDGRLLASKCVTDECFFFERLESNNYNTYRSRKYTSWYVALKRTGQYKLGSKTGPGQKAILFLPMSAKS
Assay: SPR, Fg β15-66 on the chip, cytokine injected (methods as Example 5), Langmuir fit
Method: Surface plasmon resonance (SPR) was done to quantify the affinity of specific cytokines to TNC III1-5. […] Method: Surface plasmon resonance chips were functionalized with TNC III1-5 or BSA and cytokines were injected over the chips at different concentrations. […] Surface plasmon resonance (SPR) was done to quantify the affinity of specific cytokines to Fg β15-66. […]
measure.name: pKd
Units for pKd: none; it is -log10 of a concentration expressed in mol/L.

Query: Please look up its pKd: Fg β15-66 (other, Made as a GST fusion; GST was cleaved off; also called TG-Fg β15-66; fibrinogen β15-66 domain) GSNQEQVSPLGHRPLDKKREEAPSLRPAPPPISGGGYRARPAKAAATQKKVERKAPDAGGCGHHHHHH
Result: 7.28
